# Assayed target: beta-catenin-B-cell lymphoma 9 protein complex (Homo sapiens, UniProt P35222)
# Sequence (P35222 whole entry): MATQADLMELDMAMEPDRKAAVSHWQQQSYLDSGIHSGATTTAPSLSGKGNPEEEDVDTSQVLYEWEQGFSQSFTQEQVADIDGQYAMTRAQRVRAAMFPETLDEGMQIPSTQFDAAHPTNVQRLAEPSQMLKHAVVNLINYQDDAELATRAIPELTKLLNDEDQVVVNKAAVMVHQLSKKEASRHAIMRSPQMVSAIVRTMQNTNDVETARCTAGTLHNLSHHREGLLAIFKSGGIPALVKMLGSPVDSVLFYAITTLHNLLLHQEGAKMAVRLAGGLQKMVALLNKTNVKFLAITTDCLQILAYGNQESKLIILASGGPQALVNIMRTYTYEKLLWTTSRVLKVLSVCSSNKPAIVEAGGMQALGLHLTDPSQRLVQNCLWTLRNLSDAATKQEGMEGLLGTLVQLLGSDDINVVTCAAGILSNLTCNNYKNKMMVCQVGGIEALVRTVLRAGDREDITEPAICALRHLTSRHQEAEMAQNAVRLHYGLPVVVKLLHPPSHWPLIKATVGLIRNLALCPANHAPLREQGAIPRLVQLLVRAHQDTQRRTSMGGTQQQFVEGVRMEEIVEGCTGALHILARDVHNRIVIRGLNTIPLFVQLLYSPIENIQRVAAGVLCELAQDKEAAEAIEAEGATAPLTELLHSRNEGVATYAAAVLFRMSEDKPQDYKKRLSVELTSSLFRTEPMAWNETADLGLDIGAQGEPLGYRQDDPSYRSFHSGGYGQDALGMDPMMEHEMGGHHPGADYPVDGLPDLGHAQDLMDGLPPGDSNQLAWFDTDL
# Sequence (O00512 whole entry): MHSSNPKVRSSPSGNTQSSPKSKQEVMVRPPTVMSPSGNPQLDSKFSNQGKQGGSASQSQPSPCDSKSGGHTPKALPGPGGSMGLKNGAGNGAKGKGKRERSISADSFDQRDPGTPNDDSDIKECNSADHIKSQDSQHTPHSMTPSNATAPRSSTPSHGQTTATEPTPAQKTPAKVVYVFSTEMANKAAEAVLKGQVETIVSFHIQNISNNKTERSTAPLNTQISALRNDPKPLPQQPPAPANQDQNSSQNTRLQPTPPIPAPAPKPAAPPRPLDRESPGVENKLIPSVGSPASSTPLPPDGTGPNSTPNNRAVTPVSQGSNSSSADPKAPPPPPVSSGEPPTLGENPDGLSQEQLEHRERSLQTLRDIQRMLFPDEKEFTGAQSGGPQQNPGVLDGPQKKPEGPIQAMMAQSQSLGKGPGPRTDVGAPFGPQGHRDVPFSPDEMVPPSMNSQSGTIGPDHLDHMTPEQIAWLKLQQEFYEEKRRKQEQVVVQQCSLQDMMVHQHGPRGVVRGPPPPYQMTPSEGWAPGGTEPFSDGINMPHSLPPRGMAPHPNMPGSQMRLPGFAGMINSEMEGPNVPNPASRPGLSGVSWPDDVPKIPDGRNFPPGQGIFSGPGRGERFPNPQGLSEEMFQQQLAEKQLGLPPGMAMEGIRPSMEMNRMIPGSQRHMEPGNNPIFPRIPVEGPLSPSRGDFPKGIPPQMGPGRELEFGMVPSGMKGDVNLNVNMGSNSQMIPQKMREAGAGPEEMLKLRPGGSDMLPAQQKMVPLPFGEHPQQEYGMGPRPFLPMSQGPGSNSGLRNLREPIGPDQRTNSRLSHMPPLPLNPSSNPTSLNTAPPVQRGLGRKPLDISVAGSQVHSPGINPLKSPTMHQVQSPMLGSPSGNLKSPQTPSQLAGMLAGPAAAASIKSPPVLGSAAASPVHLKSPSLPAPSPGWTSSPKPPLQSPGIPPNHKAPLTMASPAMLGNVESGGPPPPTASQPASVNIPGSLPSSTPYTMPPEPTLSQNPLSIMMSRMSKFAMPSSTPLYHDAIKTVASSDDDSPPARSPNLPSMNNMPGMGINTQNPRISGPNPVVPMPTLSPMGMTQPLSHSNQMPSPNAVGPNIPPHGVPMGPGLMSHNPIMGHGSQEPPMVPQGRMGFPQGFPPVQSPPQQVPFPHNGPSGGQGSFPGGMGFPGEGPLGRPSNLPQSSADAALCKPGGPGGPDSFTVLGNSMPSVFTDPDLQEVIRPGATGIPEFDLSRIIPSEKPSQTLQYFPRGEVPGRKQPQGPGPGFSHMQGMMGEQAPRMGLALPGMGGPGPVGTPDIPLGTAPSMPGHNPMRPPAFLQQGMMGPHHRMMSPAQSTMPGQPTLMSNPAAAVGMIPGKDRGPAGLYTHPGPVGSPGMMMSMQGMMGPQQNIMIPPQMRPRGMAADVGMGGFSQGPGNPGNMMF
# Measurement protocol: Inhibition of full length C-terminal 6-His-tagged beta-catenin (1 to 781 residues) (unknown origin) expressed in Escherichia coli BL21 (DE3)-N-terminal biotinylated human BCL9 (350 to 375 residues) protein-protein interaction incubated for 1 hr by Alphascreen assay
Assay endpoint: IC50

Solved entries:
CC(C)(C)OC(=O)C(C)(C)Oc1cccc(N2CCCC(C(=O)N(Cc3ccc(-c4cccs4)cc3)C3CC3)C2)c1 (stereo not drawn): > 100 µM
Cn1cc(-c2ccc(CN(C(=O)C3CCCN(c4cccc(OC(C)(C)C(=O)O)c4)C3)C3CC3)cc2)cn1 (stereo not drawn): > 100 µM

Tell me the measured IC50 of Cn1nccc1-c1ccc(CN(C(=O)C2CCCN(c3cccc(OC(C)(C)C(=O)O)c3)C2)C2CC2)cc1 (stereo not drawn) , please.
> 100 µM
